- MEASURED_ON: PKD1L3/PKD2L1 (Mus musculus, UniProt A2A259+Q2EG98, I1053S/I114V/I482V/L203V/Q202H/Y438D)
- Construct: HA (N); expressed in transfected cells; host or cells: HEK293T
- Sequence (Q2EG98 21-2151 I1053S): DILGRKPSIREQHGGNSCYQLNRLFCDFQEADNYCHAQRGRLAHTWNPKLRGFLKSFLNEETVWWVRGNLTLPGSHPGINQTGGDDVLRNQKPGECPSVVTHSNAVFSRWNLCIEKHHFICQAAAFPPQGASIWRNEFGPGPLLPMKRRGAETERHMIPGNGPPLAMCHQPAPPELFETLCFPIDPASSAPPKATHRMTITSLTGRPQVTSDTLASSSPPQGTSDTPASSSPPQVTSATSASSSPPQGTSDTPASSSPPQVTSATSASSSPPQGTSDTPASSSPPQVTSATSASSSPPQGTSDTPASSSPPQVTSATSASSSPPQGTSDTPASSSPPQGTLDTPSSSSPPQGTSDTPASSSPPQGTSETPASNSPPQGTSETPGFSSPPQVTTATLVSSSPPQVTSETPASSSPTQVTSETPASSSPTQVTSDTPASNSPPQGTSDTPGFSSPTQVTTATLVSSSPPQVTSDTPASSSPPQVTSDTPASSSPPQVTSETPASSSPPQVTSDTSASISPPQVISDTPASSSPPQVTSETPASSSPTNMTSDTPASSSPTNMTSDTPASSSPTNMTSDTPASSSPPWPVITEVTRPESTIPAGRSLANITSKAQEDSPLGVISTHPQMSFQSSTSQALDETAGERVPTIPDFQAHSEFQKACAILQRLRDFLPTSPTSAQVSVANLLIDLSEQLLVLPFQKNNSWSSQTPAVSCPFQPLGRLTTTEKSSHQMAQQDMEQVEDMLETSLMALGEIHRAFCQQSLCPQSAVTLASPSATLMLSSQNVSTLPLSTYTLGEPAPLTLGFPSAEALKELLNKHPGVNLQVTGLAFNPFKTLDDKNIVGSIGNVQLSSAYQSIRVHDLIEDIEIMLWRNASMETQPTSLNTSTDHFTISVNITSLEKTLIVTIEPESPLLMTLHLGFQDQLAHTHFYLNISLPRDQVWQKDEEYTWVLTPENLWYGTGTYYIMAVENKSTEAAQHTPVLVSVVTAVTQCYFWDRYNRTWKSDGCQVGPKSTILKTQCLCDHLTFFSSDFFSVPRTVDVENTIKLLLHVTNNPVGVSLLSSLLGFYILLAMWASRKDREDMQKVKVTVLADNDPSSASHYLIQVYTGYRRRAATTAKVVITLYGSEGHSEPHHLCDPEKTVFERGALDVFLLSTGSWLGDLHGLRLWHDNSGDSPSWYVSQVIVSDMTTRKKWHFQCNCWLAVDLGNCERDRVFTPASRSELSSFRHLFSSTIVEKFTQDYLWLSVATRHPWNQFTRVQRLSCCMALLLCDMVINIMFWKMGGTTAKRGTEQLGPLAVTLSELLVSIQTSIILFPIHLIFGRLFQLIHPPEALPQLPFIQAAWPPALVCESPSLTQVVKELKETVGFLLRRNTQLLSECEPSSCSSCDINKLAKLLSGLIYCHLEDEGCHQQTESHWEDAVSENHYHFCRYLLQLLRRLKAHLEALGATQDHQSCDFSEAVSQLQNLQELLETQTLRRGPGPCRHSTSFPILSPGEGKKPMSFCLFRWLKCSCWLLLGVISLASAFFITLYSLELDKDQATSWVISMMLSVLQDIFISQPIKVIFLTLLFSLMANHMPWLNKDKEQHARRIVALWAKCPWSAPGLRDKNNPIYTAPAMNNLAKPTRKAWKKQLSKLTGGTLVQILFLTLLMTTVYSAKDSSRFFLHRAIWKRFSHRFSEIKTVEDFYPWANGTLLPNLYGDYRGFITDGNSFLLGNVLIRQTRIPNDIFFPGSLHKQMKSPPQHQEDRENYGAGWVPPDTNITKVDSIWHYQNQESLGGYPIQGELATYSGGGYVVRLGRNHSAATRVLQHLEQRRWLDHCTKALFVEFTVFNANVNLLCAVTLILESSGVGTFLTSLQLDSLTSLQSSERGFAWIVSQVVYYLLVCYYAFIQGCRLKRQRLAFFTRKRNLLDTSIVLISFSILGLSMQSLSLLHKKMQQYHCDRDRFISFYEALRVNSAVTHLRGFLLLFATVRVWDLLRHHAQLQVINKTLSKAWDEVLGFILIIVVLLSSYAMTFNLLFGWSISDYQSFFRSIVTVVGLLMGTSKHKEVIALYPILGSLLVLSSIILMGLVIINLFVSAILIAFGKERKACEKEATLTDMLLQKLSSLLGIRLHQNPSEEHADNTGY
- Sequence (A2A259 whole entry I114V/Q202H/L203V/Y438D/I482V): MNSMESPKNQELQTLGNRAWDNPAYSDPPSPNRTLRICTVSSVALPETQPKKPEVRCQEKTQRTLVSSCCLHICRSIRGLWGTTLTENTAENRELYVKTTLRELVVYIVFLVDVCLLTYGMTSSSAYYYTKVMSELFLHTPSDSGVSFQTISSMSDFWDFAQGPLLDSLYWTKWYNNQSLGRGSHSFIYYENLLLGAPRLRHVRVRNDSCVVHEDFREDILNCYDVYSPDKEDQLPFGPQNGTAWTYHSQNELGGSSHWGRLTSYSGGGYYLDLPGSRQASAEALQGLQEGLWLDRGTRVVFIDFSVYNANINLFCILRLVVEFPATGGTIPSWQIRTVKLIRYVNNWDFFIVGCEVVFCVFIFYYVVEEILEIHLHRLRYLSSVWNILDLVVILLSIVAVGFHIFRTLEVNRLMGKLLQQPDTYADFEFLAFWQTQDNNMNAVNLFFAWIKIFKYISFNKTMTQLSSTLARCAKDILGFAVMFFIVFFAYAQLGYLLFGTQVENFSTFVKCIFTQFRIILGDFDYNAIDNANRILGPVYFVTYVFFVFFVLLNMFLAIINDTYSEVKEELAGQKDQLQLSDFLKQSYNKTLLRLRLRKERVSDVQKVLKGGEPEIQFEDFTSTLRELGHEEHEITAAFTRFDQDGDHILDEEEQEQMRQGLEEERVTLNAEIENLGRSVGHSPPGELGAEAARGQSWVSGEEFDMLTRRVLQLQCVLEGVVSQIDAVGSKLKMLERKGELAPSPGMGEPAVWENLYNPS
- TEST_DESCRIPTION: Calcium imaging (fluo-4/fura-red) of HEK293T cells transiently co-expressing PKD1L3 and PKD2L1
- Format: cell-based, murine
- CONDITIONS: cells expressing both PKD1L3 and PKD2L1; citric acid 25 mM, pH 2.6; hydrochloric acid at the same pH

{"SMILES_NOTATION": "OC[C@H]1O[C@@](CO)(O[C@H]2O[C@H](CO)[C@@H](O)[C@H](O)[C@H]2O)[C@@H](O)[C@@H]1O", "MEASURED_ON": "PKD1L3/PKD2L1 (Mus musculus, UniProt A2A259+Q2EG98, I1053S/I114V/I482V/L203V/Q202H/Y438D)", "calcium response upon stimulation": "did not respond"}
{"SMILES_NOTATION": "O=C1NS(=O)(=O)c2ccccc21", "MEASURED_ON": "PKD1L3/PKD2L1 (Mus musculus, UniProt A2A259+Q2EG98, I1053S/I114V/I482V/L203V/Q202H/Y438D)", "calcium response upon stimulation": "did not respond"}
{"SMILES_NOTATION": "C=C[C@H]1C[N@@]2CC[C@H]1C[C@H]2[C@H](O)c1ccnc2ccc(OC)cc12", "MEASURED_ON": "PKD1L3/PKD2L1 (Mus musculus, UniProt A2A259+Q2EG98, I1053S/I114V/I482V/L203V/Q202H/Y438D)", "calcium response upon stimulation": "did not respond"}
